# Assay: Membrane permeability in Franz diffusion cell
# Type: in vitro ADME
# Test parameters: pH 7.4, PermeaPad barrier; slight decrease upon growing HP-β-CD concentration in donor solution (lowest value reached); read-out: permeability coefficient (Papp)
Parameter: Papp at 5 h

stdin: Could you share which Papp at 5 h value was measured for CC(C)NNC(=O)c1ccncc1 [IPN, N′-isopropyl isonicotinic hydrazide] ?
stdout: ≥ 17.8 ×10⁻⁶ cm/s

====

Each entry below carries its recorded Papp at 5 h.
# Assay: Membrane permeability in Franz diffusion cell
# Type: in vitro ADME
# Test parameters: pH 7.4, PermeaPad barrier; 310.2 K; without cyclodextrins; read-out: permeability coefficient (Papp)

NC(=O)c1ccncc1 [iNAM, pyridine-4-carboxylic acid amide]
7.3 ×10⁻⁶ cm/s

stdin: Look at this compound and give its reported Papp at 5 h. CC(C)NNC(=O)c1ccncc1 [IPN, N′-isopropyl isonicotinic hydrazide]
stdout: 20.3 ×10⁻⁶ cm/s
